Target Desc: β-lactamase, Enterobacter P99 (Enterobacter cloacae, UniProt P05364)
Sequence (P05364 21-381): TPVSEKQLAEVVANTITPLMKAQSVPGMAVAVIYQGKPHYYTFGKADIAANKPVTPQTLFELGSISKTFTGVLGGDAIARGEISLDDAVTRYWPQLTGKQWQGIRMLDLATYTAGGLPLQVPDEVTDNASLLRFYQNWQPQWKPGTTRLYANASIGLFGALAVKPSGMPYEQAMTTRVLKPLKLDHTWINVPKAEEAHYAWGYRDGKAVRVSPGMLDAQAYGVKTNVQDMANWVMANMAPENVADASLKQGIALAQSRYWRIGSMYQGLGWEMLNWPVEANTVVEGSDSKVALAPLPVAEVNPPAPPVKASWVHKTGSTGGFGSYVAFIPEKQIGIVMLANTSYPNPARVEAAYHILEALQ
Protocol Description: β-lactamase inhibition I50
The compounds listed here are annotated with their IC50.
Use µM as the unit, but write only the number.

Task: Form field: reported IC50 of O=C(OCc1ccccc1)C1=CC[C@H]2[C@@H](C3(O)CCCCC3)C(=O)N12 (relative stereo)
Output: 14.6

Continue with the next compound.
Task: Fill in the blank: the reported IC50 of O=CCC1C(=O)N2C(C(=O)OCc3ccccc3)=CCC12 (centres unmarked) is ____.
Output: 5.61

====

Target Desc: β-lactamase, Pseudomonas dalgleish (Pseudomonas aeruginosa, UniProt P16897)
Sequence (P16897 18-288): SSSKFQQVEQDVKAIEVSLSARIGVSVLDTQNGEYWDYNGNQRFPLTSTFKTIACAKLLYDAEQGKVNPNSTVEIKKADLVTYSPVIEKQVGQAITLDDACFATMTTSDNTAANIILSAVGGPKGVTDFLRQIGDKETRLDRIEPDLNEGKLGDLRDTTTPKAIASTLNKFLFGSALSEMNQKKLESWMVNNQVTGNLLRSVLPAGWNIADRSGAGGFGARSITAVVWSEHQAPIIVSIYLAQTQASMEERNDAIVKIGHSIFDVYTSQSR
Protocol Description: β-lactamase inhibition I50
Metric Name: IC50 (µM)
Express your answer in µM, writing the number without its unit.

Task: Dear colleague, I am looking for the recorded IC50 of the following molecule: O=CCC1C(=O)N2C(C(=O)OCc3ccccc3)=CCC12 (stereo not shown) [compound 4]
Output: 3.51

====

Test system: Proteus mirabilis C977
Measured MIC, listed per entry for reference.
Expressed in µg/mL, but write only the number.

Task: # value lookup — system Proteus mirabilis C977, readout MIC, item O=C(OC1OC(=O)c2ccccc21)C1=CCC2CC(=O)N12 (stereo not shown) [compound 81]
Output: 20

Task: Field: MIC (Proteus mirabilis C977). Entry: N#C/C=C/C[C@H]1C(=O)N2C(C(=O)OCc3ccccc3)=CC[C@@H]12 (relative stereo) [compound 56]
Output: 20

Continuing:
Task: Query the reported MIC for Proteus mirabilis C977; item: COC(=O)/C=C/C[C@H]1C(=O)N2C(C(=O)OC3OC(=O)c4ccccc43)=CC[C@@H]12 (relative stereo) [compound 41]
Output: 100

Task: Give the reported MIC for N#C/C=C/C[C@H]1C(=O)N2C(C(=O)OC3OC(=O)c4ccccc43)=CC[C@@H]12 (relative stereo) [compound 61] (system: Proteus mirabilis C977).
Output: 66.6
